target: NMDA receptor channel; test: Equilibrium binding of [3H]MK-801 (Scatchard), rat cerebral cortex membranes; conditions: absence of glutamate and glycine, 4 hr at 25° C.; read-out: Kd determined at equilibrium
Measured attribute: Kd (nM)

[[record]]
compound = "C[C@]12N[C@H](Cc3ccccc31)c1ccccc12 [[^3 H]MK-801]"
numeric_result = 2.1


---

biological target: NMDA receptor channel; test: [3H]MK-801-receptor association kinetics, repeatedly washed rat cerebral cortex membranes; assay type: binding; settings: presence of glutamate and glycine; read-out: kinetically derived dissociation constant (Kd), ratio of off-rate and on-rate constants
Measured attribute: Kd (nM)

[[record]]
compound = "C[C@]12N[C@H](Cc3ccccc31)c1ccccc12 [[^3 H]MK-801]"
numeric_result = 4.8


Cited source: patent US4994446A
